- Tested on: Jurkat cells
- METHOD SUMMARY: Tacrolimus dose response of FKBP13-AcGFP-mCherry constructs stably transduced into Jurkat cells, GFP MFI by flow cytometry
- Format: cell-based
- CONDITION SUMMARY: tacrolimus; FIG. 36
Property: FC; scope: individual molecules
Reply with the value as a number alone.

MOLECULE	FC
FKBP-282: FKBP13 DRD-AcGFP construct of Table 10 (protein, Description of sequence: Construct Name: FKBP-282; Mutation(s): Q72R Q74W Q84E A117W V85R) HCPIKSRKGDVLHMHYTGKLEDGTEFDSSLPRNWPFVFSLGTGERIKGWDQGLLGMCEGEKRKLVIPSELGYGERGWPPKIPGGATLVFEVELLKIER	39.54
FKBP-281: FKBP13 DRD-AcGFP construct of Table 10 (protein, Description of sequence: Construct Name: FKBP-281; Mutation(s): Q72R Q74R Q84E A117W V85R E130F K120I) HCPIKSRKGDVLHMHYTGKLEDGTEFDSSLPRNRPFVFSLGTGERIKGWDQGLLGMCEGEKRKLVIPSELGYGERGWPPIIPGGATLVFFVELLKIER	77.66

Now for another entry.
-- ask Fill in: FC of FKBP-283: FKBP13 DRD-AcGFP construct of Table 10 (protein, Description of sequence: Construct Name: FKBP-283; Mutation(s): Q72R Q74W Q84E A117W V85R K135Y) HCPIKSRKGDVLHMHYTGKLEDGTEFDSSLPRNWPFVFSLGTGERIKGWDQGLLGMCEGEKRKLVIPSELGYGERGWPPKIPGGATLVFEVELLYIER is ___
-- reply 39.79

From: patent US20250186614A1
